# weight increase rate (%) per record follows
- protocolNotes: Experimental Example 5: comparison of hygroscopicity by weight gain over time (60 to 66% RH)
- Format: physicochemical
- measurementSetup: 24 EC, 10 minutes

- compound: "CCOC(=O)[C@H](C)N.CS(=O)(=O)O [L-Ala-OEt MsOH salt, L-alanine ethyl ester methanesulfonate]"
  weight increase rate (%): 0.32
- compound: "CCOC(=O)[C@H](C)N.O=S(=O)(O)c1ccccc1 [L-Ala-OEt BsOH salt, L-alanine ethyl ester benzenesulfonate]"
  weight increase rate (%): 1.46
- compound: "CCOC(=O)[C@H](C)N.O=S(=O)(O)c1ccc(Cl)cc1 [L-Ala-OEt 4-CBS salt]"
  weight increase rate (%): 2.26
- compound: "COC(=O)[C@H](C)N.Cl [L-Ala-OMe HCl salt, alanine methyl ester hydrochloride, reference compound]"
  weight increase rate (%): 3.03
